For each entry below, report its cytotoxicity at 10 µM value.
- assayOverview: Toxicity liver stage against HepG2, at 10uM
- Format: cell-based
- Parameters: test concentration 10 uM, cell line HepG2-A16-CD81EGFP
- conditionInfo: human, HepG2-A16-CD81EGFP cells; read-out: INHIBITION
A number alone suffices; assume %.

GET /values?readout=cytotoxicity at 10 µM&item= O=C(O)COc1ccc(Cl)cc1CN1CCC2(CCNCC2)CC1
6.45

GET /values?readout=cytotoxicity at 10 µM&item= COCC(C)NCc1ccc2[nH]c(C)c(C)c2c1 (centres undefined)
-3.06

GET /values?readout=cytotoxicity at 10 µM&item= O=C(Nc1cccnc1)C1Cc2nc(-c3ccsc3)sc2N1CC1CC1 (centres undefined)
14.5

GET /values?readout=cytotoxicity at 10 µM&item= O=C(c1n[nH]c2c1CN(C1CCOCC1)CC2)N1CCCC1
-2.39

GET /values?readout=cytotoxicity at 10 µM&item= CCCN(Cc1cccc(OCCO)c1)Cc1ccccc1OC
5.15

GET /values?readout=cytotoxicity at 10 µM&item= Cc1c(NC(=O)NC2CCOCC2)cccc1C(=O)N1CCCC1
12

GET /values?readout=cytotoxicity at 10 µM&item= Cc1nc(N(C)C)nc2c1COCC21CCN(CC2CC2)C1 (centres undefined)
-8.94

GET /values?readout=cytotoxicity at 10 µM&item= COc1ccc(NC(=O)N2CCCCCC2c2ccncc2)cn1 (centres undefined)
5.55

GET /values?readout=cytotoxicity at 10 µM&item= COc1ncnc(N)c1CNCc1ccccc1-n1cccn1
-24.4

GET /values?readout=cytotoxicity at 10 µM&item= O=C(CCc1ccccn1)N1CCCN(C(=O)CC2CCCC2)CC1
-0.546

GET /values?readout=cytotoxicity at 10 µM&item= CN(Cc1ccccc1CN1CCCC1)C(=O)c1c[nH]c(=O)[nH]1
-3.99

GET /values?readout=cytotoxicity at 10 µM&item= CCOc1ccc(C(=O)CCC(=O)NCc2csc(N)n2)cc1C
7.34

GET /values?readout=cytotoxicity at 10 µM&item= COc1ccccc1OCC(=O)NS(=O)(=O)c1cccnc1
-4.69

GET /values?readout=cytotoxicity at 10 µM&item= Cc1nc(C(=O)Nc2cc(N3CCNC3=O)ccc2Cl)cs1
-1.33

GET /values?readout=cytotoxicity at 10 µM&item= CCN(C)C(=O)c1ccnn1-c1ccc2ccccn12
6.71

GET /values?readout=cytotoxicity at 10 µM&item= CC(NC(=O)CN1CCN(c2ccncc2Cl)CC1)c1ccco1 (centres undefined)
-6.02

GET /values?readout=cytotoxicity at 10 µM&item= NC(=O)CN1CC[C@@]2(O)CCCC[C@H]2[C@@H]1c1ccc2c(c1)OCO2
3.26

GET /values?readout=cytotoxicity at 10 µM&item= Nc1nccc(C2CCCN(CC3CC3)C2)n1 (centres undefined)
0.631

GET /values?readout=cytotoxicity at 10 µM&item= CC1(C)CC(=O)c2cnc3nc(N4CCOCC4)nc(O)c3c2C1
1.21

GET /values?readout=cytotoxicity at 10 µM&item= CC(C)c1nnc2n1CCN(C(C(N)=O)c1ccc(F)cc1)C2 (centres undefined)
1.54

GET /values?readout=cytotoxicity at 10 µM&item= COCCNc1nc2c(c(NCc3cnc(C)c(C)c3)n1)CCNCC2
-1.22

GET /values?readout=cytotoxicity at 10 µM&item= CC[C@@H]1N(CC2CCC2)CCC[C@]12CCC(=O)N2Cc1ccncc1
7.12

GET /values?readout=cytotoxicity at 10 µM&item= CCOC(=O)N1CCN(c2nc(NC3CC3)c3ccccc3n2)CC1
-0.529

GET /values?readout=cytotoxicity at 10 µM&item= CSc1cccc(CNC(=O)[C@H]2CNC[C@@H](C(=O)N3CCOCC3)C2)c1
-6.91
